# reported DC50; entries follow
- measured on: BRAF V600E (Homo sapiens, UniProt P15056, V600E)
- Sequence (P15056 whole entry V600E): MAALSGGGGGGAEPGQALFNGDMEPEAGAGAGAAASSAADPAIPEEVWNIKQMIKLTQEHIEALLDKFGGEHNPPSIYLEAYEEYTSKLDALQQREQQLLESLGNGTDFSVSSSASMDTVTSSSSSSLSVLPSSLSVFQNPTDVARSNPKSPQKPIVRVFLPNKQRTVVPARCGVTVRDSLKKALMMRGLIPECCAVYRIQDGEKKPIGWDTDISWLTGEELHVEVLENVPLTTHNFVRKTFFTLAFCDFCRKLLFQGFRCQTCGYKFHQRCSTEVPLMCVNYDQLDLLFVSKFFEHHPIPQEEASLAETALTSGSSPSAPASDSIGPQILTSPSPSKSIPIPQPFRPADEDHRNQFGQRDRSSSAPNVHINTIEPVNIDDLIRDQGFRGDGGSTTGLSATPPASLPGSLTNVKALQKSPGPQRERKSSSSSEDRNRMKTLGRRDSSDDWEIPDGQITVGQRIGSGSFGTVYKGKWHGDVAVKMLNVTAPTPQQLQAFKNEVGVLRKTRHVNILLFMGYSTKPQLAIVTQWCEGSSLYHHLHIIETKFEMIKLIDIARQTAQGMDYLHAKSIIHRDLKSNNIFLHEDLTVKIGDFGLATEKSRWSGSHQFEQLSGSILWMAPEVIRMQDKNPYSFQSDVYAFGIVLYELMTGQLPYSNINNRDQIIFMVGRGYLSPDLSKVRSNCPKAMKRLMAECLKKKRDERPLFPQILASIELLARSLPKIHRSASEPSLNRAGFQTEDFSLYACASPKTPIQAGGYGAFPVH
- protocol text: HiBiT cellular BRAF^V600E degradation assay
- Assay type: cell-based
- particulars: A375.10 cells, 24 h; concentration at which 50% of total cellular BRAF^V600E is degraded

compound	DC50 / nM
CCN(C)S(=O)(=O)Nc1ccc(F)c(Oc2ccc3ncn(CCC4CCN(C(=O)CN5CCC(c6ccc(NC7CCC(=O)NC7=O)c(F)c6)CC5)CC4)c(=O)c3c2)c1C#N (stereo not shown)	35.9
CCN(C)S(=O)(=O)Nc1ccc(F)c(Oc2ccc3ncn(CCN4CCN(C(=O)CN5CCC(c6ccc(NC7CCC(=O)NC7=O)cc6F)CC5)CC4)c(=O)c3c2)c1C#N (stereo not shown)	27.9
CCN(C)S(=O)(=O)Nc1ccc(F)c(Oc2ccc3ncn(C4CCC5(CC4)CCN(C(=O)CN4CCC(c6ccc7c(C8CCC(=O)NC8=O)nn(C)c7c6)CC4)CC5)c(=O)c3c2)c1C#N (stereo not shown)	26.6
N#Cc1c(NS(=O)(=O)C2CCCCC2)ccc(F)c1Oc1ccc2ncn(-c3cnc(N4CCN(C(=O)CN5CCC(c6ccc(N[C@H]7CCC(=O)NC7=O)cc6F)CC5)CC4)nc3)c(=O)c2c1	17.7

----------
- measured on: BRAF V600E (Homo sapiens, UniProt P15056, V600E)
- protocol text: HiBiT cellular BRAF^V600E degradation assay
- Type: cell-based
- particulars: A375.10 cells, 24 h; residual protein remaining in the cell; read-out: HiBit 24 h Emax
measured property: Emax (%)

compound	number
CCN(C)S(=O)(=O)Nc1ccc(F)c(Oc2ccc3ncn([C@H]4COC5(CCN(C(=O)CN6CCC(c7ccc(C8CCC(=O)NC8=O)cc7F)CC6)CC5)C4)c(=O)c3c2)c1C#N (stereo partly shown)	13.4
CCN(C)S(=O)(=O)Nc1ccc(F)c(Oc2ccc3ncn([C@H]4COC5(CCN(C(=O)CN6CCC(c7ccc(C8CCC(=O)NC8=O)cc7F)C(F)(F)C6)CC5)C4)c(=O)c3c2)c1C#N (stereo partly shown)	15.4
CCN(C)S(=O)(=O)Nc1ccc(F)c(Oc2ccc3ncn(CCCC4CCN(C(=O)CN5CCC(c6ccc7c(C8CCC(=O)NC8=O)nn(C)c7c6)CC5)CC4)c(=O)c3c2)c1C#N (stereo not shown)	15
CCN(C)S(=O)(=O)Nc1ccc(F)c(Oc2ccc3ncn(-c4cnc(N5CCN(C(=O)CN6CCC(c7ccc(N[C@@H]8CCC(=O)NC8=O)cc7F)CC6)CC5)nc4)c(=O)c3c2N)c1C#N	11.6

----------
- measured on: BRAF V600E (Homo sapiens, UniProt P15056, V600E)
- protocol text: HiBiT cellular BRAF^V600E degradation assay
- Assay type: cell-based
- particulars: A375.10 cells, 24 h; residual protein remaining in the cell; read-out: HiBit 24 h Emax
measured property: Emax (%)

molecule	measured property	endpoint unit	number
CCN(C)S(=O)(=O)Nc1ccc(F)c(Oc2ccc3ncn(C4CC5(CCN(C(=O)CN6CCC(c7ccc8c(N9CCC(=O)NC9=O)nn(C)c8c7)CC6)CC5)C4)c(=O)c3c2)c1C#N [Example 147]	Emax	%	9.49
CC(C)S(=O)(=O)Nc1ccc(F)c(Oc2ccc3ncn([C@H]4COC5(CCN(C(=O)CN6CCC(c7ccc8c(C9CCC(=O)NC9=O)nn(C)c8c7)CC6)CC5)C4)c(=O)c3c2)c1C#N (some centres unmarked) [Example 168]	Emax	%	14.1
CCN(C)S(=O)(=O)Nc1ccc(F)c(Nc2ccc3ncn([C@H]4COC5(CCN(C(=O)CC6(O)CCN(c7cc8c(cc7F)c(N7CCC(=O)NC7=O)nn8C)CC6)CC5)C4)c(=O)c3c2F)c1C#N (single isomer, unassigned) [Example 184]	Emax	%	18
Cn1nc(C2CCC(=O)NC2=O)c2ccc(C3CCN(CC(=O)N4CCC5(CC4)C[C@@H](n4cnc6ccc(Oc7c(F)ccc(NS(=O)(=O)N8CC[C@@H](F)C8)c7C#N)cc6c4=O)CO5)CC3)cc21 (some centres unmarked) [Example 165]	Emax	%	17.8
CCN(C)S(=O)(=O)Nc1ccc(F)c(Oc2ccc3ncn([C@H]4COC5(CCN(C(=O)CC6(F)CCN(c7cc8c(cc7F)c(N7CCC(=O)NC7=O)nn8C)CC6)CC5)C4)c(=O)c3c2)c1C#N [Example 201]	Emax	%	27.2
CCN(C)S(=O)(=O)Nc1ccc(F)c(Oc2ccc3ncn(C4CC5(CCN(C(=O)[C@H]6C[C@H](N7CC(c8ccc(NC9CCC(=O)NC9=O)cc8F)C7)C6)CC5)C4)c(=O)c3c2)c1C#N (some centres unmarked) [Example 39]	Emax	%	15.7
N#Cc1c(NS(=O)(=O)N2CCCCC2)ccc(F)c1Oc1ccc2ncn(-c3cnc(N4CCN(C(=O)CN5CCC(c6ccc(N[C@H]7CCC(=O)NC7=O)cc6F)CC5)CC4)nc3)c(=O)c2c1 [Example 113]	Emax	%	11.1
CCN(C)S(=O)(=O)Nc1ccc(F)c(Oc2ccc3ncc(C4COC5(CCN(C(=O)CN6CCC(c7ccc(NC8CCC(=O)NC8=O)cc7F)CC6)CC5)C4)cc3c2)c1C#N (centres unmarked) [Example 218]	Emax	%	6.96

Attribution: patent US12486253B2
